The measurements presented in this section are drawn from ChEMBL document CHEMBL4425121.

Experiment Summary: Cmax in ICR mouse at 2 mg/kg, iv by LC-MS/MS analysis
Format: ADME, organism-based
Parameters: dose 2 mg/kg, route intravenous
Protocol Conditions: in vivo
Value Kind: Cmax (ng/mL)
Answers are plain numbers, in ng/mL.

Examples with answers:
1) COc1cc(OC)c(Cl)c(-c2ccc3c(NC(=O)c4ccc(N5CCCN(C)CC5)cc4)n[nH]c3n2)c1Cl	870
2) COc1cc(CCc2cc(NC(=O)c3ccc(N4C[C@@H](C)N[C@@H](C)C4)cc3)n[nH]2)cc(OC)c1	1880
3) COc1cc(OC)c(Cl)c(-c2ccc3c(NC(=O)c4ccc(N5CCN(CCO)CC5)cc4)n[nH]c3n2)c1Cl	796

Now consider the entry below.
[in] Fill blank: measured Cmax of the compound "COCCN1CCN(c2ccc(C(=O)Nc3n[nH]c4nc(-c5c(Cl)c(OC)cc(OC)c5Cl)ccc34)cc2)CC1" is ____.
[out] 826

* * *

Target Entity: Vascular endothelial growth factor receptor 2 (Homo sapiens)
Sequence (P35968 whole entry): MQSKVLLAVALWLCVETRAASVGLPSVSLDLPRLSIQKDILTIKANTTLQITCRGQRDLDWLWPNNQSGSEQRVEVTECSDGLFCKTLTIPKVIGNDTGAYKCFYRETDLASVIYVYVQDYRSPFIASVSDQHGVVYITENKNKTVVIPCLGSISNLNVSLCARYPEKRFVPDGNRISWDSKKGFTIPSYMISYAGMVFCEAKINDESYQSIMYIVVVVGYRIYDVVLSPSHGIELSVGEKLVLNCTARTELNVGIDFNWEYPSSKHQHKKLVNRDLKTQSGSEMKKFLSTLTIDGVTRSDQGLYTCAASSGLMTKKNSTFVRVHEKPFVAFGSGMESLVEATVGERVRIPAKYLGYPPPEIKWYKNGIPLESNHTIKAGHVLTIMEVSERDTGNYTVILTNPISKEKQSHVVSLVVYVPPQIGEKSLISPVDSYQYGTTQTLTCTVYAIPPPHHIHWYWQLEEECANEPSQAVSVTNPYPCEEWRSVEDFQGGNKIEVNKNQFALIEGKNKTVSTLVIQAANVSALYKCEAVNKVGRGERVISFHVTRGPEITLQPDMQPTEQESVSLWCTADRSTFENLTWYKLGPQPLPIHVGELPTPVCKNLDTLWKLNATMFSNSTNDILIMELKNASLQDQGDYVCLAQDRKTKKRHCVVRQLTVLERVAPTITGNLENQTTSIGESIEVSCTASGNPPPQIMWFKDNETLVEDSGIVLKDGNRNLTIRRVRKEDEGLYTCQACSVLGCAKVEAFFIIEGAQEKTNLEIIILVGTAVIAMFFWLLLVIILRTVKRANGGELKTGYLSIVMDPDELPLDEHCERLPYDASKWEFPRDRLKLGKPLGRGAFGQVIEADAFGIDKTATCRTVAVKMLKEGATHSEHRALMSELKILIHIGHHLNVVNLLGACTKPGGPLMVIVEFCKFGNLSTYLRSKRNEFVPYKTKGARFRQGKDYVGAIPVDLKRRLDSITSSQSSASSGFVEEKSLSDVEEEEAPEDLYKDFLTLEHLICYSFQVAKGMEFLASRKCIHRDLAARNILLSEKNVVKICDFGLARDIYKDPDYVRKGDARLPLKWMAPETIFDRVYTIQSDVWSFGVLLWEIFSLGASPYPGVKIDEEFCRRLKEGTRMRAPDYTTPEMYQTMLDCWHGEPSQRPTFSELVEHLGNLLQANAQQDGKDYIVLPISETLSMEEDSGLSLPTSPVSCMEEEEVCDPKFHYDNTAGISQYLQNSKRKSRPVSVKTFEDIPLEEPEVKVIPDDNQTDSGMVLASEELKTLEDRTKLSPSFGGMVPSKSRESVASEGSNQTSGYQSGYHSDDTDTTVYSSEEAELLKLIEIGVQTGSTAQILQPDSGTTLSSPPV
Experiment Summary: Inhibition of recombinant human VEGFR2 using poly (Glu,Tyr)4:1 as substrate incubated for 60 mins by ELISA
Value Kind: pIC50
One number for each entry, as −log10 of the molar value.

1. COc1cc(OC)c(Cl)c(-c2ccc3c(NC(=O)c4ccc(N5CCN(C)CC5)cc4)n[nH]c3n2)c1Cl	6.44

[in] Data request, read-out pIC50, for "COc1cc(OC)cc(-c2ccc3c(NC(=O)c4ccc(N5CCN(C)CC5)cc4)n[nH]c3n2)c1"
[out] 6.26

* * *

Target Entity: Vascular endothelial growth factor receptor 2 (Homo sapiens)
Experiment Summary: Inhibition of VEGFR2 (unknown origin) overexpressed in mouse NIH/ 3T3 cells incubated for 5 mins followed by stimulation with VEGF for 5 mins by immunoblotting analysis
Type: cell-based
pIC50: −log10 of the molar value.
Value Kind: pIC50

[in] I have this compound here, "CCN(CC)CCCCNc1ncc2cc(-c3cc(OC)cc(OC)c3)c(NC(=O)NC(C)(C)C)nc2n1" , and I need its recorded pIC50.
[out] 6.70 to 7.00

* * *

System: SNU-16
Experiment Summary: Antiproliferative activity against human SNU16 cells after 72 hrs by CCK-8 assay
Format: functional, cell-based
Protocol Conditions: SNU-16, 72 h
Value Kind: IC50 (nM)
Give bare numbers, in nM.

[in] Item: "COc1cc(CCc2cc(NC(=O)c3ccc(N4C[C@@H](C)N[C@@H](C)C4)cc3)n[nH]2)cc(OC)c1" Test system: SNU-16 Read-out: IC50 Value: ?
[out] 1.2

* * *

Experiment Summary: Volume of distribution in ICR mouse at 2 mg/kg, iv by LC-MS/MS analysis
Format: ADME, organism-based
Protocol Conditions: in vivo
Value Kind: Vd (L/kg)
Give bare numbers, in L/kg.

Solved cases below.
1. COc1cc(CCc2cc(NC(=O)c3ccc(N4C[C@@H](C)N[C@@H](C)C4)cc3)n[nH]2)cc(OC)c1	3.18
2. COc1cc(OC)c(Cl)c(-c2ccc3c(NC(=O)c4ccc(N5CCCN(C)CC5)cc4)n[nH]c3n2)c1Cl	5.43
3. COc1cc(OC)c(Cl)c(-c2ccc3c(NC(=O)c4ccc(N5CCN(CCO)CC5)cc4)n[nH]c3n2)c1Cl	10

Moving on to another compound below.
[in] Look up Vd: "COCCN1CCN(c2ccc(C(=O)Nc3n[nH]c4nc(-c5c(Cl)c(OC)cc(OC)c5Cl)ccc34)cc2)CC1"
[out] 4.51

* * *

Experiment Summary: Half life in ICR mouse at 12.5 mg/kg administered as oral gavage by LC-MS/MS analysis
Type: ADME, organism-based
Protocol Conditions: in vivo
What half-life was measured for each of the following?
Answers are plain numbers, in h.

Sample answers from the record:
1) COc1cc(OC)c(Cl)c(-c2ccc3c(NC(=O)c4ccc(N5CCN(CCO)CC5)cc4)n[nH]c3n2)c1Cl	3.38
2) COc1cc(CCc2cc(NC(=O)c3ccc(N4C[C@@H](C)N[C@@H](C)C4)cc3)n[nH]2)cc(OC)c1 [FEXAGRATINIB]	2.55
3) COc1cc(OC)c(Cl)c(-c2ccc3c(NC(=O)c4ccc(N5CCCN(C)CC5)cc4)n[nH]c3n2)c1Cl	2.9

Lab note: next compound to report on.
[in] Using the record for "COCCN1CCN(c2ccc(C(=O)Nc3n[nH]c4nc(-c5c(Cl)c(OC)cc(OC)c5Cl)ccc34)cc2)CC1" , report its half-life.
[out] 2.76

* * *

Experiment Summary: Half life in ICR mouse at 2 mg/kg, iv by LC-MS/MS analysis
Assay type: ADME, organism-based
Protocol Conditions: in vivo
Value Kind: half-life (min)
Numbers only, in min.

Below: 2 compounds and their reported half-life.
1. COc1cc(OC)c(Cl)c(-c2ccc3c(NC(=O)c4ccc(N5CCN(CCO)CC5)cc4)n[nH]c3n2)c1Cl	224
2. COCCN1CCN(c2ccc(C(=O)Nc3n[nH]c4nc(-c5c(Cl)c(OC)cc(OC)c5Cl)ccc34)cc2)CC1	188

Give me half-life for each of these compounds, listed below.
1. COc1cc(OC)c(Cl)c(-c2ccc3c(NC(=O)c4ccc(N5CCCN(C)CC5)cc4)n[nH]c3n2)c1Cl
2. COc1cc(CCc2cc(NC(=O)c3ccc(N4C[C@@H](C)N[C@@H](C)C4)cc3)n[nH]2)cc(OC)c1

[out]
[208, 137]

* * *

Experiment Summary: Clearance in ICR mouse at 2 mg/kg, iv by LC-MS/MS analysis
Format: ADME, organism-based
Protocol Conditions: in vivo
Value Kind: clearance (mL/min/kg)
Give bare numbers, in mL/min/kg.

Observe how each entry below is paired with its result.
1) COc1cc(CCc2cc(NC(=O)c3ccc(N4C[C@@H](C)N[C@@H](C)C4)cc3)n[nH]2)cc(OC)c1 [FEXAGRATINIB]	16.1
2) COc1cc(OC)c(Cl)c(-c2ccc3c(NC(=O)c4ccc(N5CCN(CCO)CC5)cc4)n[nH]c3n2)c1Cl	31
3) COCCN1CCN(c2ccc(C(=O)Nc3n[nH]c4nc(-c5c(Cl)c(OC)cc(OC)c5Cl)ccc34)cc2)CC1	16.6

Now, please, on to the next compound.
[in] I have this compound here, "COc1cc(OC)c(Cl)c(-c2ccc3c(NC(=O)c4ccc(N5CCCN(C)CC5)cc4)n[nH]c3n2)c1Cl" , and I need its recorded clearance.
[out] 18.1

* * *

Experiment Summary: AUC(0 to infinity) in ICR mouse at 12.5 mg/kg administered as oral gavage by LC-MS/MS analysis
Assay type: ADME, organism-based
Set-up: dose 12.5 mg/kg, route oral, time infinity
Protocol Conditions: in vivo
Value Kind: AUC(0-inf) (µg·h/mL)
Give bare numbers, in µg·h/mL.

Take a look at these entries with their results.
1. COc1cc(OC)c(Cl)c(-c2ccc3c(NC(=O)c4ccc(N5CCN(CCO)CC5)cc4)n[nH]c3n2)c1Cl	3.51
2. COCCN1CCN(c2ccc(C(=O)Nc3n[nH]c4nc(-c5c(Cl)c(OC)cc(OC)c5Cl)ccc34)cc2)CC1	9.01

Please give AUC(0-inf), item by item, for the list that follows.
1. COc1cc(CCc2cc(NC(=O)c3ccc(N4C[C@@H](C)N[C@@H](C)C4)cc3)n[nH]2)cc(OC)c1
2. COc1cc(OC)c(Cl)c(-c2ccc3c(NC(=O)c4ccc(N5CCCN(C)CC5)cc4)n[nH]c3n2)c1Cl

[out]
9.13
4.62

* * *

Target Entity: Fibroblast growth factor receptor 1 (Homo sapiens)
Sequence (P11362 whole entry): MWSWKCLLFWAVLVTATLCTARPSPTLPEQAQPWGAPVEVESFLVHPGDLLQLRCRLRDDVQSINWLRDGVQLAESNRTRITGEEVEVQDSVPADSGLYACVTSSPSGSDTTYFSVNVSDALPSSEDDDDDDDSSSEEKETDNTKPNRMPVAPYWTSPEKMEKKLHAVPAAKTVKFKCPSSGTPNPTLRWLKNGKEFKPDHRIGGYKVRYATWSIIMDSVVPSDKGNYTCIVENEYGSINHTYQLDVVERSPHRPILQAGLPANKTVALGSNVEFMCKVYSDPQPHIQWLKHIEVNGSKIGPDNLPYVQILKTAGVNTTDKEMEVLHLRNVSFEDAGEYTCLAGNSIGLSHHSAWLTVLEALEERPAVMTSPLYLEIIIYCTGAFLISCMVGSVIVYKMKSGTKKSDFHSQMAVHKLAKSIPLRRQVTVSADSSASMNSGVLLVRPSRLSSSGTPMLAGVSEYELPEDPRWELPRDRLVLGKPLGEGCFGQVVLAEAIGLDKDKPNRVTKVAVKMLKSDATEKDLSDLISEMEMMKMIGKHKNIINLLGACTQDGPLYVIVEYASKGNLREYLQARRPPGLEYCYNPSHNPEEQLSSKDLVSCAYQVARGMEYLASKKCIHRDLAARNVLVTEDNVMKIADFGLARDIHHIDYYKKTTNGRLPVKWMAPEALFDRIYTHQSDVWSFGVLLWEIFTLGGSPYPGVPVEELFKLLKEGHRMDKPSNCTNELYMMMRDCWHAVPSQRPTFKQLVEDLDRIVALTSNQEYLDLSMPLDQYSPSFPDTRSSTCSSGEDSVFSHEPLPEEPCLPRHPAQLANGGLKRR
Experiment Summary: Inhibition of recombinant human FGFR1 using poly (Glu,Tyr)4:1 as substrate incubated for 60 mins by ELISA
Value Kind: IC50 (nM)
Answers are plain numbers, in nM.

Consider the worked cases shown below.
1) COc1cc(OC)c(Cl)c(-c2ccc3c(NC(=O)c4ccc(N5CCCCC5)cc4)n[nH]c3n2)c1Cl	8.8
2) COc1cc(OC)c(Cl)c(-c2ccc3c(NC(=O)c4ccc(N5CCCN(C)CC5)cc4)n[nH]c3n2)c1Cl	7.2
3) COc1cc(OC)c(Cl)c(-c2ccc3c(NC(=O)c4ccc(N5CCN(C)CC5)cc4)n[nH]c3n2)c1Cl	0.3
4) COc1cc(OC)c(Cl)c(-c2ccc3c(NC(=O)c4ccc(N5CCN(C)CC5)cc4Cl)n[nH]c3n2)c1Cl	14
5) COc1cc(OC)cc(-c2ccc3c(NC(=O)c4ccc(N5CCN(C)CC5)cc4)n[nH]c3n2)c1	3710
6) CCN1CCN(c2ccc(C(=O)Nc3n[nH]c4nc(-c5c(Cl)c(OC)cc(OC)c5Cl)ccc34)cc2)CC1	0.5

Hello, I would appreciate it if you could give IC50 for each entry below.
1. COCCN1CCN(c2ccc(C(=O)Nc3n[nH]c4nc(-c5c(Cl)c(OC)cc(OC)c5Cl)ccc34)cc2)CC1
2. COc1cc(OC)c(Cl)c(-c2ccc3c(NC(=O)c4ccc(N5CCN(CCO)CC5)cc4)n[nH]c3n2)c1Cl
3. COc1cc(OC)c(Cl)c(-c2ccc3c(NC(=O)c4ccc(N5CCN(S(C)(=O)=O)CC5)cc4)n[nH]c3n2)c1Cl
4. COc1cc(OC)c(Cl)c(-c2ccc3c(NC(=O)c4ccc(N(C)C)cc4)n[nH]c3n2)c1Cl
5. C=CCN1CCN(c2ccc(C(=O)Nc3n[nH]c4nc(-c5c(Cl)c(OC)cc(OC)c5Cl)ccc34)cc2)CC1

[out]
0.3
0.3
0.2
16.5
0.6

List reported IC50 for each of these molecules:
1. COc1cc(OC)c(Cl)c(-c2ccc3c(NC(=O)c4ccc(N5CCN(C)CC5)s4)n[nH]c3n2)c1Cl
2. COc1cc(OC)c(Cl)c(-c2ccc3c(NC(=O)c4ccc(N5CCN(C(C)=O)CC5)cc4)n[nH]c3n2)c1Cl

[out]
[4.1, 0.3]

Look up IC50 for the entries below, preserving their order.
1. COc1cc(N2CCN(C)CC2)ccc1C(=O)Nc1n[nH]c2nc(-c3c(Cl)c(OC)cc(OC)c3Cl)ccc12
2. COc1cc(OC)c(Cl)c(-c2ccc3c(NC(=O)c4ccc(N5CCN(C)CC5)cn4)n[nH]c3n2)c1Cl
3. COc1cc(OC)c(Cl)c(-c2ccc3c(NC(=O)c4ccc(N(C)CCN(C)C)cc4)n[nH]c3n2)c1Cl

[out]
1: 74.4; 2: 7.8; 3: 3.9
